experiment: ACEA_AR_agonist_AUC_viability: ACEA Biosciences xCELLigence Real-Time Cell Analysis on Androgen Receptor Agonism for Viability (AID 2283775)
Results filed as inconclusive are left out. Calls of active or inactive are those of the source. Rule for the calls: active = hit-call score of the fitted dose curve at least 0.9, where 1 is the maximum; inconclusive = response in the unintended direction; inactive = score below 0.9.
Allowed answers: active, inactive

# example entries with known answers
- CCCCCCCCCC[N+](C)(C)CCCCCCCCCC: active
- ClC1=C(Cl)[C@]2(Cl)[C@@H]3[C@@H](Cl)[C@H]4O[C@H]4[C@@H]3C1(Cl)C2(Cl)Cl: inactive
- Cc1ccc(O)c(C)c1: inactive
- CN(C)c1nc(=O)n(C2CCCCC2)c(=O)n1C: inactive
- Sc1ccccc1: inactive
- CCCCCCOC(=O)c1ccccc1C(=O)OCCCCCC: active
- Clc1ccc(Cl)cc1: inactive
- Oc1ccc(C(c2ccc(O)cc2)(C(F)(F)F)C(F)(F)F)cc1: active

Query block: Identify the outcome logged in this assay for the compound shown: "COc1ccc(O)c(C(C)(C)C)c1"
Result block: active

Query block: Please share the test call associated with "c1cc2ccc3cccc4ccc(c1)c2c34" .
Result block: inactive

---

Read-out: Matrix Metallopeptidase 1 (MMP1), MMP1 (gene 4312)
Assay: BSK_BE3C_MMP1: BioMAP Diversity Plus: BE3C Assay for Matrix Metallopeptidase 1 (MMP1) Biomarker Activity (AID 2283024)
Details: primary human bronchial epithelial cells; actives raise or lower the signal
Description: BSK_BE3C is a cell-based, multiplexed-readout assay that uses bronchial epithelial cell, a human lung primary cell, with measurements taken at 24 hours after chemical dosing in a 96-well plate.BSK_BE3C_MMP1 is an assay component measured in the BSK_BE3C assay. It measures MMP-1 antibody related to regulation of gene expression using ELISA technology.Data from the assay component BSK_BE3C_MMP1 was analyzed into 1 assay endpoint. […]
Active and inactive are the calls of the source. How the source made its calls: active means hit-call score of the fitted dose curve at least 0.9, where 1 is the maximum; inactive means score below 0.9.
quantityKind: outcome

Worked cases, answers included:
* COS(=O)(=O)OC | inactive
* Oc1ccc(Cl)cc1Cl | inactive
* c1cc2ccc3cccc4ccc(c1)c2c34 | inactive
* CC(C)(c1ccccc1)c1ccc(O)cc1 | inactive
* C[C@]12CCC(=O)C=C1CC[C@@H]1[C@@H]2CC[C@]2(C)C(=O)CC[C@@H]12 | inactive

Documented outcome of "O=C(NC(=O)c1cc(F)c(F)cc1Cl)Nc1cc(F)ccc1N1CCC(C(=O)O)CC1" : inactive

Consider "O=C(NC(=O)c1c(F)cccc1F)Nc1cc(Cl)c(OC(F)(F)C(F)F)c(Cl)c1" . Its measured outcome is inactive

---

assay: ATG_Ets_CIS: Attagene CIS-FACTORIAL HepG2 Assay for human Erythroblast Transformation Specific (ETS) (AID 2282941); conditions: HepG2 ETS cis-reporter transcription, actives raise or lower the signal
Active and inactive are the calls of the source. The calls were made as follows: active = hit-call score of the fitted dose curve at least 0.9, where 1 is the maximum; inactive = score below 0.9.
Pick one: active, inactive

Here's what some known entries look like.
- Cc1cccc(C)c1N: inactive
- COc1ccc(O)c(C(C)(C)C)c1: active
- Clc1ccc(C(Cl)(Cl)Cl)cc1: inactive
- Cc1cc(O)ccc1Cl: inactive
- CCOC(=O)C(O)(c1ccc(Cl)cc1)c1ccc(Cl)cc1: inactive

Query block: Which outcome was assigned to "CCOCCOC(C)=O" in this test?
Result block: inactive

Query block: Tell me the recorded outcome of this test for "C[C@]12CCC(=O)C=C1CC[C@@H]1[C@@H]2CC[C@@]2(C)[C@H]1CC[C@]2(C)O" .
Result block: inactive

Query block: What is the recorded call for this molecule in the test? "Nn1cnnc1"
Result block: inactive

---

assay: CCTE_Padilla_ZF_144hpf_TERATOSCORE: (Legacy) CCTE's 144 Hour Post-fertilization zebrafish Assay Teratoscore, Padilla Lab (AID 2283679)
Activity calls are given as the source filed them. How the source made its calls: active means hit-call score of the fitted dose curve at least 0.9, where 1 is the maximum; inactive means score below 0.9.
Classes to choose from: active, inactive

Below, 3 compounds whose answers are already recorded.
* COS(=O)(=O)OC | inactive
* ClC(Cl)=C(c1ccc(Cl)cc1)c1ccc(Cl)cc1 | active
* Oc1ccc(Cl)cc1Cl | active

Here's the next entry for you.
Query block: Answer briefly: the call reported for "ClC1=C(Cl)[C@]2(Cl)[C@@H]3[C@@H](Cl)[C@H]4O[C@H]4[C@@H]3C1(Cl)C2(Cl)Cl" in this assay.
Result block: active

---

read-out: CD38, CD38 (gene 952); experiment: BSK_SAg_CD38: BioMAP Diversity Plus: SAg Assay for CD38 Biomarker Activity (AID 2283087); details: primary human HUVEC with PBMC; actives raise or lower the signal
Calls of active or inactive are those of the source. The calls were made as follows: active = hit-call score of the fitted dose curve at least 0.9, where 1 is the maximum; inactive = score below 0.9.
The reply should name one outcome from active, inactive

Illustrative cases are given below, each with its answer.
* O=S(=O)(O)C(F)(F)C(F)(F)C(F)(F)C(F)(F)F | inactive
* Cc1ccccc1CO[C@@H]1C[C@@]2(C(C)C)CC[C@]1(C)O2 | inactive
* c1ccc(-c2ccccc2)cc1 | inactive

Then there is this compound:
Query block: Recorded test outcome, item "CN(C)c1nc(=O)n(C2CCCCC2)c(=O)n1C"
Result block: inactive

---

read-out: Cytochrome P450 3A4 (Homo sapiens) (UniProt P08684); test: LTEA_HepaRG_CYP3A4: Life Technologies and Expression Analysis (LTEA) Assay for CYP3A4 using HepaRG (AID 2283487); conditions: mRNA level, 48 h; actives raise or lower the signal
Sequence (P08684 whole entry, looked up): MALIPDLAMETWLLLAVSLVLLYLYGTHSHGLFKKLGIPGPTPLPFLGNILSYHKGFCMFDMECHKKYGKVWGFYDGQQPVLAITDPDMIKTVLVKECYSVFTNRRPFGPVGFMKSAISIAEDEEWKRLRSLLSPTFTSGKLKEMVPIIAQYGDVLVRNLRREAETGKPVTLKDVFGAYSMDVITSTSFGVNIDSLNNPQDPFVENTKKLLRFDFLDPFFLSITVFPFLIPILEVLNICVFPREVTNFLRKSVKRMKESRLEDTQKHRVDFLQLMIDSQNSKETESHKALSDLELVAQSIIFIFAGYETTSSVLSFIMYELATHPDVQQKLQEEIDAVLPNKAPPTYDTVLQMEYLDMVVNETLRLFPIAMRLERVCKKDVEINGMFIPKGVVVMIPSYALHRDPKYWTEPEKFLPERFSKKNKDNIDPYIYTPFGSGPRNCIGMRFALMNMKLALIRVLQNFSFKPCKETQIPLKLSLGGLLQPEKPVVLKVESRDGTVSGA
Calls of active or inactive are those of the source. Rule for the calls: active = hit-call score of the fitted dose curve at least 0.9, where 1 is the maximum; inactive = score below 0.9.
Please reply with one of these outcomes: active, inactive

Some solved entries appear below for comparison.
- Cc1ccc(O)c(C)c1: inactive
- Cc1ccccc1[N+](=O)[O-]: inactive
- COc1ccc(O)c(C(C)(C)C)c1: active
- O=C(NC(=O)c1c(F)cccc1F)Nc1cc(Cl)c(OC(F)(F)C(F)F)c(Cl)c1: inactive
- Cc1cccc([N+](=O)[O-])c1: inactive
- O=NN(c1ccccc1)c1ccccc1: inactive

Query block: Assay result, entry "O=S(=O)(O)C(F)(F)C(F)(F)C(F)(F)C(F)(F)C(F)(F)C(F)(F)F" — outcome?
Result block: active

Query block: Any idea what this test logged for "CCCCCCCCOC(=O)c1ccccc1C(=O)OCCCCCCCC" ?
Result block: inactive

Query block: Call for entry "CCCN(CCC)N=O" :
Result block: inactive

Query block: Any idea what this test logged for "Clc1ccc(C(Cl)(Cl)Cl)cc1" ?
Result block: inactive

Query block: What call does the record list for "O=C(NC(=O)c1cc(F)c(F)cc1Cl)Nc1cc(F)ccc1N1CCC(C(=O)O)CC1" ?
Result block: inactive

---

assay: TOX21_p53_BLA_p2_viability: Viability Assessment in the Tox21 HCT-116 p53 Agonism Beta-lactamase Assay, Phase 2 (AID 2283591);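 note: compound exposure lasted 16 h at 37 °C; actives lower the ATP signal meaning cytotoxicity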
Inconclusive results are not listed. Activity calls are given as the source filed them. The calls were made as follows: active = hit-call score of the fitted dose curve at least 0.9, where 1 is the maximum; inconclusive = response in the unintended direction; inactive = score below 0.9.
Pick one and only one: active, inactive

- CCOP(=S)(OCC)SCSC(C)(C)C: inactive
- CC(C)(O)C(=O)Nc1ccc([N+](=O)[O-])c(C(F)(F)F)c1: inactive
- O=C(O)C(F)(F)C(F)(F)C(F)(F)C(F)(F)C(F)(F)C(F)(F)C(F)(F)C(F)(F)F: active
- O=C(NC(=O)c1cc(F)c(F)cc1Cl)Nc1cc(F)ccc1N1CCC(C(=O)O)CC1: inactive

Query block: Recorded test call requested for "CC#Cc1cc(C)nc(Nc2ccccc2)n1"
Result block: inactive

Query block: GET /call?item= "CC1=C2C[C@H]3[C@@H](CC=C4C[C@@H](O)CC[C@@]43C)[C@@H]2CC[C@]12O[C@@H]1C[C@H](C)CN[C@H]1[C@H]2C" returns the recorded outcome of this test.
Result block: inactive

Query block: Query: recorded result category for "C[C@]12CCC(=O)C=C1CC[C@@H]1[C@@H]2CC[C@@]2(C)[C@H]1CC[C@]2(C)O" in this test
Result block: inactive

Query block: Could you please tell me the result logged for "CN(C)CCO" in this assay?
Result block: inactive

Query block: Hi, do you know how "Clc1ccc(C(Cl)(Cl)Cl)cc1" came out in this test?
Result block: inactive

---

read-out: Peroxisomal acyl-coenzyme A oxidase 1 (ACOX1) gene, ACOX1 (gene 51); assay: LTEA_HepaRG_ACOX1: Life Technologies and Expression Analysis (LTEA) Assay for Peroxisomal acyl-coenzyme A oxidase 1 (ACOX1) gene using HepaRG (AID 2283467); conditions: mRNA level, 48 h; actives raise or lower the signal
Active and inactive are the calls of the source. The calls were made as follows: active = hit-call score of the fitted dose curve at least 0.9, where 1 is the maximum; inactive = score below 0.9.
Response enum: YES (active), NO (inactive)

Answered examples (2):
* Nc1ccc(-c2ccc(N)cc2)cc1 | NO
* CC1=C2C[C@H]3[C@@H](CC=C4C[C@@H](O)CC[C@@]43C)[C@@H]2CC[C@]12O[C@@H]1C[C@H](C)CN[C@H]1[C@H]2C | NO

Query block: Answer briefly: the call reported for "Clc1ccc(C(Cl)(Cl)Cl)cc1" in this assay.
Result block: NO

Query block: What outcome does the record of this test show for "Oc1c(Cl)c(Cl)c(Cl)c(Cl)c1Cl" ?
Result block: YES

Query block: Dear all, I need the recorded test outcome for C1CC2OC2CC1C1CO1 (configuration not stated) , thank you.
Result block: NO

Query block: Record lookup: outcome of this test for "C[C@]12CCC(=O)C=C1CC[C@@H]1[C@@H]2CC[C@@]2(C)[C@H]1CC[C@]2(C)O" ?
Result block: NO

Query block: Please let me know the test result on file for "Cc1cccc([N+](=O)[O-])c1" .
Result block: NO

Cited source: PubChem BioAssay (EPA / NIEHS)
